B1: ESRRA (parent)
chain: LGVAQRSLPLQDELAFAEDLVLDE

# Variants of: B1
# assay.overview: protein stability index of a GFP-peptide fusion (GPS, HEK-293T) (PSI 1-6); higher = more stable;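 further: lentivirally expressed fusions sorted by FACS into six bins by GFP to DsRed ratio, PSI derived from sequencing read proportions per bin multiplied by bin number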
# experimental.setup: c terminus: a fixed tail appended
protein stability index by entry:
measurement.type: protein stability index

input.sequence	measurement.type	meas.value
LGVAQRSLNLQDELAFAEDLVLDE [P9N]	protein stability index	4.18
LGVAQRSLPLQDQLAFAEDLVLDE [E13Q]	protein stability index	2.99
LGVAQRSLPLQDELACAEDLVLDE [F16C]	protein stability index	3.86
LGVAQDSLPLQDELAFAEDLVLDE [R6D]	protein stability index	4.23
LGVAQNSLPLQDELAFAEDLVLDE [R6N]	protein stability index	2.64
LGVAQRSLPLQDEWAFAEDLVLDE [L14W]	protein stability index	4.37
LGVAQRSLPLQDELAFAEDAVLDE [L20A]	protein stability index	4.42
IGVAQRSLPLQDELAFAEDLVLDE [L1I]	protein stability index	2.2
LGVAQTSLPLQDELAFAEDLVLDE [R6T]	protein stability index	3.23
LGVAQRSLPLQDELAQAEDLVLDE [F16Q]	protein stability index	2.68
LGVAQRSLPLQDELEFAEDLVLDE [A15E]	protein stability index	4.74
LGVAQRSLPLQDELAFAECLVLDE [D19C]	protein stability index	1.82
PGVAQRSLPLQDELAFAEDLVLDE [L1P]	protein stability index	3.63
LGRAQRSLPLQDELAFAEDLVLDE [V3R]	protein stability index	2.58
LGVAQRSLPLQDELAFAEDWVLDE [L20W]	protein stability index	4.82
LGVAQRSLPLQDELAFAEELVLDE [D19E]	protein stability index	2.34
LGVAQRSLPLQDWLAFAEDLVLDE [E13W]	protein stability index	3.24
LGVAQKSLPLQDELAFAEDLVLDE [R6K]	protein stability index	2.92
LGVAQRSLPLQDELAFAEDLQLDE [V21Q]	protein stability index	5.24
LGVAQRSLTLQDELAFAEDLVLDE [P9T]	protein stability index	4.04
LGVAQRSLPLQSELAFAEDLVLDE [D12S]	protein stability index	2.01
LGVAQRSLPLQDELAAAEDLVLDE [F16A]	protein stability index	3.16
LGEAQRSLPLQDELAFAEDLVLDE [V3E]	protein stability index	4.36
LGVAQRSLPLQDELAFAEDCVLDE [L20C]	protein stability index	2.51
LGVAQRSKPLQDELAFAEDLVLDE [L8K]	protein stability index	4.38
LGVAQRSLPLQDELAFAEDGVLDE [L20G]	protein stability index	5.51
LGVAQRSLPLQDELAFAEDHVLDE [L20H]	protein stability index	4.81
LGVAQRSLPLQDELAFAEDLVLDG [E24G]	protein stability index	4.13
LGVAQRSLPLQDEEAFAEDLVLDE [L14E]	protein stability index	5.5
LGVAQRSLPLQDELAFAEDMVLDE [L20M]	protein stability index	2.16
LGVAQRSLPLQDELAFAEDLVLDH [E24H]	protein stability index	2.57
LGDAQRSLPLQDELAFAEDLVLDE [V3D]	protein stability index	3.69
LGVAQRSLPLQDRLAFAEDLVLDE [E13R]	protein stability index	4.62
LGVAQRSLPLNDELAFAEDLVLDE [Q11N]	protein stability index	4.12
LGVAQASLPLQDELAFAEDLVLDE [R6A]	protein stability index	3.14
LGVAQRSLPLQDELAFATDLVLDE [E18T]	protein stability index	4.81
LGVAQRSLVLQDELAFAEDLVLDE [P9V]	protein stability index	4.05
LGVAQRSLPLQDELAFAEVLVLDE [D19V]	protein stability index	1.76
LGVAQRSLPLQDELKFAEDLVLDE [A15K]	protein stability index	2.3
LGVAQRSLPLQDEMAFAEDLVLDE [L14M]	protein stability index	2.13
LLVAQRSLPLQDELAFAEDLVLDE [G2L]	protein stability index	2.21
LGVAQRSLPLQDELAFAEDLVLSE [D23S]	protein stability index	2.58
LGVAQRSLPFQDELAFAEDLVLDE [L10F]	protein stability index	4.97
LGVAQRSLPLQDELAFAEDLVLDP [E24P]	protein stability index	3.92
LGVAQFSLPLQDELAFAEDLVLDE [R6F]	protein stability index	2.26
LGVAQRSLPLQDSLAFAEDLVLDE [E13S]	protein stability index	4.45
LGVAQRSLPLQDELAFPEDLVLDE [A17P]	protein stability index	5.19
LGVAQRHLPLQDELAFAEDLVLDE [S7H]	protein stability index	2.29
LGVAQRSLPLQDELAFAEDLVDDE [L22D]	protein stability index	5.13
LGVAQRSLPLWDELAFAEDLVLDE [Q11W]	protein stability index	2.71
LGVAQRSLPLQDELAFAEDLVLEE [D23E]	protein stability index	2.65
LGVAQRSLPLQDELAFAEDLVLDW [E24W]	protein stability index	2.21
LGVAQRSLPLQDELAFAEQLVLDE [D19Q]	protein stability index	3.58
LGVAQRSLPLQDELAFAFDLVLDE [E18F]	protein stability index	3.3
LGVAQRSLKLQDELAFAEDLVLDE [P9K]	protein stability index	3.07
LGVSQRSLPLQDELAFAEDLVLDE [A4S]	protein stability index	2.81
LGVAQRSLPLQDELAFAEDLLLDE [V21L]	protein stability index	3.96
LKVAQRSLPLQDELAFAEDLVLDE [G2K]	protein stability index	1.98
LGVAQRSQPLQDELAFAEDLVLDE [L8Q]	protein stability index	3.72
LGVAQRSLPLQDELAFAEDLVKDE [L22K]	protein stability index	2.74
LGKAQRSLPLQDELAFAEDLVLDE [V3K]	protein stability index	2.39
LGVAQRSLPLQDELARAEDLVLDE [F16R]	protein stability index	3.03
LGVACRSLPLQDELAFAEDLVLDE [Q5C]	protein stability index	1.76
LGVAQRSLPLQGELAFAEDLVLDE [D12G]	protein stability index	3.59
LGVAQRSLPLEDELAFAEDLVLDE [Q11E]	protein stability index	4.87
LGVAQRSLPLQDELAFAEDVVLDE [L20V]	protein stability index	3.67
LGVAQRSLPLQDELAFYEDLVLDE [A17Y]	protein stability index	3.39
LGVAQRSLFLQDELAFAEDLVLDE [P9F]	protein stability index	3.54
LGVAQRSLPLQDELAHAEDLVLDE [F16H]	protein stability index	3.46
LGVRQRSLPLQDELAFAEDLVLDE [A4R]	protein stability index	1.86
LGVAQRSLPLQDELAFWEDLVLDE [A17W]	protein stability index	2.02
LGVAQESLPLQDELAFAEDLVLDE [R6E]	protein stability index	3.27
LGVAQRSLPEQDELAFAEDLVLDE [L10E]	protein stability index	4.36
LGVAQRSLPLQDELAFAEDLVADE [L22A]	protein stability index	3.96
LGVAQRSLPLQDCLAFAEDLVLDE [E13C]	protein stability index	3.38
LGVAQRSLPLQDELLFAEDLVLDE [A15L]	protein stability index	3.81
LGVAQRSLPLQDELAFAEDLVLDQ [E24Q]	protein stability index	3.67
LGVAQRSLPQQDELAFAEDLVLDE [L10Q]	protein stability index	5.45
WGVAQRSLPLQDELAFAEDLVLDE [L1W]	protein stability index	1.74
LGVAQRGLPLQDELAFAEDLVLDE [S7G]	protein stability index	2.79
LGVAQRSLQLQDELAFAEDLVLDE [P9Q]	protein stability index	4.66
LGVAQRSLPLQDELAFAEDLVCDE [L22C]	protein stability index	3.76
LAVAQRSLPLQDELAFAEDLVLDE [G2A]	protein stability index	3.14
LGVAQRSLPLQDELFFAEDLVLDE [A15F]	protein stability index	4.42
LGVAQRCLPLQDELAFAEDLVLDE [S7C]	protein stability index	2.4
LGMAQRSLPLQDELAFAEDLVLDE [V3M]	protein stability index	2.12
LGVAQRMLPLQDELAFAEDLVLDE [S7M]	protein stability index	2.84
LPVAQRSLPLQDELAFAEDLVLDE [G2P]	protein stability index	3.92
LGVAQRSLPLQDELTFAEDLVLDE [A15T]	protein stability index	3.26
LGQAQRSLPLQDELAFAEDLVLDE [V3Q]	protein stability index	2.84
LGVAQRSLPLQDELAFAEDLDLDE [V21D]	protein stability index	5.76
